FYI, the data here is from PubChem BioAssay AID618.

# assaySummary: inhibitors of MT1-MMP promoter transcription, cell-based, luciferase reporter, luminescence (AID 618);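 also: actives suppress MT1-MMP promoter-driven transcription so potencies describe inhibitors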
# conditionSummary: MT1-MMP promoter luciferase reporter cells
Hit rate of the full screen: of about 87,000 compounds, about 540 (0.62%) were called active. No rule for the calls is given here. The sample holds actives, similar compounds and a random draw of the others, so the mix is not that of the screen. Potency and affinity values are given separately.
Hi there, use one of these labels in your reply, thanks! active, inactive

Example entries begin here.
compound | group
O=C(Nc1ccc(-c2nc3ccccc3o2)cc1)C1CCCO1 (stereo not drawn) | active
O=C(Nc1ccc(O)cc1)C1CCCO1 (stereo not drawn) | inactive
CCc1ccc2oc(-c3cc(N)cc(C)c3O)nc2c1 | inactive

Recorded test outcome, item "CCc1ccc2oc(-c3cc(N=Cc4cccc(OC)c4O)ccc3O)nc2c1"
active

Recorded test outcome, item O=C(Nc1ccc(-c2nc3ccccc3[nH]2)cc1)C1CCCO1 (stereo not drawn)
active

Recorded test outcome, item "COc1cccc(C=Nc2cc(C)on2)c1O"
inactive

Recorded test outcome, item "COc1cccc(C=Nc2ccc3c(c2)OCCO3)c1O"
inactive

Recorded test outcome, item "CCOc1nc(C)ccc1-c1noc(-c2ccco2)n1"
inactive

Recorded test outcome, item "CCOC(=O)CSc1nnc(N)s1"
inactive

Recorded test outcome, item "COc1ccc(CCNC(=O)N2CCOCC2)cc1"
inactive
